Recorded viscosity for the following molecules
conditions: 308.15 K; 100 kPa; Liquid; Concentric cylinders viscometry
Give just the numeric value; mPa·s need not be written.

>  <molecule>
CCCC(C)O (centres undefined) [pentan-2-ol]

>  <viscosity (mPa·s)>
2.282

$$$$

Q: Give a short answer stating reported viscosity for CCC(C)O (centres undefined) [butan-2-ol] .
Ans: 2.128

Q: Give a short answer stating reported viscosity for CC(C)O [propan-2-ol] .
Ans: 1.561

Q: Give a short answer stating reported viscosity for CC(=O)CC(C)C [4-methylpentan-2-one] .
Ans: 0.493

----------
conditions: 323.15 K; 100 kPa; Liquid; Vibrating tube method
Recorded mass density for the following compounds
Give just the numeric value; kg/m3 need not be written.

Below are worked cases with known answers.
>  <compound>
CCCC(C)O (centres undefined)

>  <mass density (kg/m3)>
784

$$$$
>  <compound>
CC(=O)CC(C)C

>  <mass density (kg/m3)>
773

$$$$
>  <compound>
CC(C)O

>  <mass density (kg/m3)>
758.8

$$$$

Next compound, please.
Q: Give a short answer stating reported mass density for CCC(C)O (centres undefined) .
Ans: 780.6

----------
Recorded mass density for the following compounds
settings: 313.15 K; 100 kPa; Liquid; Vibrating tube method
Numbers after ± are expanded uncertainties.
Units required after the number.

Below are worked cases with known answers.
>  <compound>
CC(=O)CC(C)C

>  <mass density>
782.3 ± 0.3 kg/m3

$$$$
>  <compound>
CCC(C)O (centres undefined)

>  <mass density>
789.8 ± 0.3 kg/m3

$$$$
>  <compound>
CC(C)O

>  <mass density>
768 ± 0.3 kg/m3

$$$$

Q: Give a short answer stating reported mass density for CCCC(C)O (centres undefined) .
Ans: 792.7 ± 0.3 kg/m3

----------
details: 313.15 K; 100 kPa; Liquid; Concentric cylinders viscometry
measurementLabel: viscosity (mPa·s)
Give just the numeric value; mPa·s need not be written.

Below are worked cases with known answers.
>  <molecule>
CCC(C)O (centres undefined) [butan-2-ol]

>  <viscosity [mPa·s]>
1.805

$$$$
>  <molecule>
CC(=O)CC(C)C [4-methylpentan-2-one]

>  <viscosity [mPa·s]>
0.463

$$$$
>  <molecule>
CC(C)O [propan-2-ol]

>  <viscosity [mPa·s]>
1.359

$$$$

Q: Give a short answer stating reported viscosity for CCCC(C)O (centres undefined) [pentan-2-ol] .
Ans: 1.931

----------
details: 293.15 K; 100 kPa; Liquid; Concentric cylinders viscometry
measurementLabel: viscosity (mPa·s)
Give just the numeric value; mPa·s need not be written.

Below are worked cases with known answers.
>  <compound>
CCC(C)O (centres undefined)

>  <unitAbbrev>
mPa·s

>  <viscosity>
3.67

$$$$
>  <compound>
CCCC(C)O (centres undefined)

>  <unitAbbrev>
mPa·s

>  <viscosity>
3.974

$$$$
>  <compound>
CC(C)O

>  <unitAbbrev>
mPa·s

>  <viscosity>
2.417

$$$$

Next compound, please.
Q: Give a short answer stating reported viscosity for CC(=O)CC(C)C .
Ans: 0.588

----------
Recorded viscosity for the following compounds
conditions: 323.15 K; 100 kPa; Liquid; Concentric cylinders viscometry
± gives the expanded uncertainty stated by the source.
Units required after the number.

Q: Give a short answer stating reported viscosity for CC(C)O .
Ans: 1.047 ± 0.023 mPa·s

Q: Give a short answer stating reported viscosity for CCC(C)O (centres undefined) .
Ans: 1.325 ± 0.028 mPa·s

Q: Give a short answer stating reported viscosity for CC(=O)CC(C)C .
Ans: 0.41 ± 0.01 mPa·s

Q: Give a short answer stating reported viscosity for CCCC(C)O (centres undefined) .
Ans: 1.419 ± 0.03 mPa·s

----------
details: 318.15 K; 100 kPa; Liquid; Vibrating tube method
Numbers after ± are expanded uncertainties.
measurementLabel: mass density
Units required after the number.

Below are worked cases with known answers.
>  <compound>
CC(C)O

>  <assayValue>
763.4 ± 0.3 kg/m3

$$$$
>  <compound>
CC(=O)CC(C)C

>  <assayValue>
777.6 ± 0.3 kg/m3

$$$$
>  <compound>
CCC(C)O (centres undefined)

>  <assayValue>
785.2 ± 0.3 kg/m3

$$$$

Next compound, please.
Q: Give a short answer stating reported mass density for CCCC(C)O (centres undefined) .
Ans: 788.4 ± 0.3 kg/m3

----------
Recorded viscosity for the following compounds
conditions: 303.15 K; 100 kPa; Liquid; Concentric cylinders viscometry
Give just the numeric value; mPa·s need not be written.

Below are worked cases with known answers.
>  <compound>
CCCC(C)O (centres undefined)

>  <measurementLabel>
viscosity

>  <assayValue>
2.717

$$$$
>  <compound>
CC(=O)CC(C)C

>  <measurementLabel>
viscosity

>  <assayValue>
0.523

$$$$
>  <compound>
CC(C)O

>  <measurementLabel>
viscosity

>  <assayValue>
1.8

$$$$

Q: Give a short answer stating reported viscosity for CCC(C)O (centres undefined) .
Ans: 2.54

----------
Recorded mass density for the following compounds
conditions: 293.15 K; 100 kPa; Liquid; Vibrating tube method
Give just the numeric value; kg/m3 need not be written.

Below are worked cases with known answers.
>  <compound>
CC(C)O [propan-2-ol]

>  <mass density / kg/m3>
785.4

$$$$
>  <compound>
CCCC(C)O (centres undefined) [pentan-2-ol]

>  <mass density / kg/m3>
809.3

$$$$
>  <compound>
CCC(C)O (centres undefined) [butan-2-ol]

>  <mass density / kg/m3>
806.7

$$$$

Next compound, please.
Q: Give a short answer stating reported mass density for CC(=O)CC(C)C [4-methylpentan-2-one] .
Ans: 800.8

----------
details: 303.15 K; 100 kPa; Liquid; Vibrating tube method
Numbers after ± are expanded uncertainties.
Recorded mass density for the following molecules
Units required after the number.

Below are worked cases with known answers.
>  <molecule>
CC(C)O

>  <assayValue>
776.8 ± 0.3 kg/m3

$$$$
>  <molecule>
CCC(C)O (centres undefined)

>  <assayValue>
798.4 ± 0.3 kg/m3

$$$$
>  <molecule>
CC(=O)CC(C)C

>  <assayValue>
791.6 ± 0.3 kg/m3

$$$$

Next molecule, please.
Q: Give a short answer stating reported mass density for CCCC(C)O (centres undefined) .
Ans: 801.2 ± 0.3 kg/m3

----------
conditions: 308.15 K; 100 kPa; Liquid; Vibrating tube method
Recorded mass density for the following compounds
Give just the numeric value; kg/m3 need not be written.

Below are worked cases with known answers.
>  <compound>
CC(=O)CC(C)C

>  <assayValue>
786.9

$$$$
>  <compound>
CC(C)O

>  <assayValue>
772.4

$$$$
>  <compound>
CCCC(C)O (centres undefined)

>  <assayValue>
797

$$$$

Next compound, please.
Q: Give a short answer stating reported mass density for CCC(C)O (centres undefined) .
Ans: 794.1

----------
Recorded viscosity for the following compounds
details: 298.15 K; 100 kPa; Liquid; Concentric cylinders viscometry
Give just the numeric value; mPa·s need not be written.

Below are worked cases with known answers.
>  <compound>
CCCC(C)O (centres undefined)

>  <measurementLabel>
viscosity

>  <assayValue>
3.277

$$$$
>  <compound>
CC(=O)CC(C)C

>  <measurementLabel>
viscosity

>  <assayValue>
0.554

$$$$
>  <compound>
CC(C)O

>  <measurementLabel>
viscosity

>  <assayValue>
2.083

$$$$

Q: Give a short answer stating reported viscosity for CCC(C)O (centres undefined) .
Ans: 3.04

----------
Recorded viscosity for the following compounds
conditions: 318.15 K; 100 kPa; Liquid; Concentric cylinders viscometry
Give just the numeric value; mPa·s need not be written.

Below are worked cases with known answers.
>  <compound>
CCCC(C)O (centres undefined)

>  <viscosity / mPa·s>
1.647

$$$$
>  <compound>
CCC(C)O (centres undefined)

>  <viscosity / mPa·s>
1.538

$$$$

Q: Give a short answer stating reported viscosity for CC(=O)CC(C)C .
Ans: 0.437

Q: Give a short answer stating reported viscosity for CC(C)O .
Ans: 1.189

----------
conditions: 298.15 K; 100 kPa; Liquid; Vibrating tube method
measurementLabel: mass density (kg/m3)
Give just the numeric value; kg/m3 need not be written.

Below are worked cases with known answers.
>  <molecule>
CCC(C)O (centres undefined)

>  <measurementLabel>
mass density

>  <unitAbbrev>
kg/m3

>  <assayValue>
802.7

$$$$
>  <molecule>
CCCC(C)O (centres undefined)

>  <measurementLabel>
mass density

>  <unitAbbrev>
kg/m3

>  <assayValue>
805.3

$$$$
>  <molecule>
CC(=O)CC(C)C

>  <measurementLabel>
mass density

>  <unitAbbrev>
kg/m3

>  <assayValue>
796.1

$$$$

Next molecule, please.
Q: Give a short answer stating reported mass density for CC(C)O .
Ans: 781.1
